- method notes: Cytotoxicity, Alamar Blue
- Type: cell-based, human
- settings: human; 72 h treatment; read-out: AB943 Primary Human Fibroblast CC50
measured parameter: CC50 at 72 h (µM)
Numbers only, in µM.

Query :: Which CC50 at 72 h is reported for this molecule? "COc1cc(O)cc(O)c1C(=O)/C=C/c1ccccc1"
Result :: 58

###

Record form. Attribute: CC50 at 72 h. Fill in for each entry.
- method notes: Cytotoxicity, Alamar Blue
- Type: cell-based, human
- settings: human, AB943 primary human dermal fibroblast cells; 72 h treatment

Query :: Which CC50 at 72 h is reported for this compound? COc1cc(OC)c2c(c1C)OC(c1ccccc1)CC2=O (stereo not drawn)
Result :: > 100 µM

Query :: Which CC50 at 72 h is reported for this compound? COc1cc2c(c(O)c1C)C(=O)CC(c1ccccc1)O2 (stereo not drawn)
Result :: > 100 µM

Consider the following items and state reported CC50 at 72 h for each.
1. COc1c(C)c(O)c2c(c1C)OC(c1ccccc1)CC2=O (stereo not drawn)
2. COC(=O)C1=CC(O)C(O)(C(=O)/C=C/c2ccccc2)C1 (stereo not drawn)
3. COc1ccc(CCNC(=O)c2ccccc2)cc1
4. COc1cc(O)c(C)c(O)c1C(=O)/C=C/c1ccccc1
5. Cc1c(O)c(C)c2c(c1O)C(=O)CC(c1ccccc1)O2 (stereo not drawn)
6. COc1cc(OC)c(C(=O)/C=C/c2ccccc2)c(O)c1C
7. O=C1C=Cc2ccccc21

Result ::
23 µM
> 100 µM
> 100 µM
> 100 µM
> 100 µM
68.5 µM
> 100 µM

###

- Test system: 3D7 Plasmodium falciparum strain
- method notes: In vitro antiplasmodial activity on Plasmodium falciparum (SYBR Green I)
- Format: cell-based
- settings: Plasmodium falciparum; chloroquine-sensitive 3D7 strain, 44 h incubation
measured parameter: IC50 (µM)
One number for each entry, in µM.

Query :: Which IC50 is reported for this compound? COc1c(C)c(O)c2c(c1C)OC(c1ccccc1)CC2=O (stereo not shown) [Compound 5]
Result :: 33.2

Query :: Which IC50 is reported for this compound? COc1cc2c(c(O)c1C)C(=O)CC(c1ccccc1)O2 (stereo not shown) [Compound 4, strobopinin 7-methyl ether]
Result :: 60

Query :: Which IC50 is reported for this compound? COc1cc(O)c(C)c(O)c1C(=O)/C=C/c1ccccc1 [Compound 2]
Result :: 51

Query :: Which IC50 is reported for this compound? COc1cc(O)cc(O)c1C(=O)/C=C/c1ccccc1 [Compound 3, cardamomin]
Result :: 5.5

Query :: Which IC50 is reported for this compound? COc1cc(OC)c(C(=O)/C=C/c2ccccc2)c(O)c1C [Compound 1, aurentiacin]
Result :: 2.25

Query :: Which IC50 is reported for this compound? Cc1c(O)c(C)c2c(c1O)C(=O)CC(c1ccccc1)O2 (stereo not shown) [Compound 6, desmethoxymatteucinol]
Result :: 71

Others:
Query :: Which IC50 is reported for this compound? COc1cc(OC)c2c(c1C)OC(c1ccccc1)CC2=O (stereo not shown) [Compound 9, dimethyl cryptostrobin]
Result :: 85

###

- Test system: 3D7 Plasmodium falciparum strain
- method notes: In vitro antiplasmodial activity on Plasmodium falciparum (SYBR Green I)
- Format: cell-based
- settings: Plasmodium falciparum; chloroquine-sensitive 3D7 strain, 44 h incubation
- Protocol: The strain was maintained in O+ human erythrocytes in an albumin-supplemented RPMI medium under continuous culture using the candle-jar method. […] After 44 h of incubation at 37 °C, the plates were subjected to 3 freeze-thaw cycles to achieve complete hemolysis. […] Parasite growth was determined using SYBR® Green I, a dye with strong fluorescence enhancement upon contact with DNA. […] IC50 was calculated by IC-estimator online software (www.antimalarial-icestimator.net, accessed on 18 January 2018).
pIC50: −log10 of the molar value.
measured parameter: pIC50

Query :: Which pIC50 is reported for this compound? COc1ccc(CCNC(=O)c2ccccc2)cc1 [Compound 11, N-Benzoyltyrarnine methyl ether]
Result :: < 4.00

Query :: Which pIC50 is reported for this compound? COC(=O)C1=CC(O)C(O)(C(=O)/C=C/c2ccccc2)C1 (stereo not drawn) [Compound 10]
Result :: < 4.00

Attention now shifts to the item below.
Query :: Which pIC50 is reported for this compound? O=C1C=Cc2ccccc21 [Compound 12, 1H-inden-1-one]
Result :: < 4.00
